FYI, the data here is from PubChem BioAssay.

Listed here are compounds together with their documented inhibition.
# testMethodNotes: inhibitors of E-selectin induction by TNFa, primary screen, imaging, HUVEC, immunofluorescence, MLSMR starter and 10KST1 sets (AID 487);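 as to inhibition: signal is fraction of cell area covered by stained E-selectin grains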
# protocolConditions: HUVEC TNFalpha-induced E-selectin immunofluorescence imaging, at 2 µM; stronger effect = higher value
# output: bare number, implied unit %

> print(dat)
                                   compound  observable  readoutnumber
1  Cn1c(C(=O)Nc2ccc3c(c2)OCO3)cc2c(=O)n(C)c3ccccc3c21  inhibition          -20.2
2  CCOc1ccc(C2CC(=O)NC3=C2C(=O)CCC3)cc1Cl (configuration not stated)  inhibition           -1.1
3  CCN(CC)C(=O)C1CCCN(Cc2ccc(N(C)C)cc2)C1 (configuration not stated)  inhibition          -48.8
4  CN1CCN(Cc2c(O)c(Cl)cc3c(-c4ccccc4)cc(=O)oc23)CC1  inhibition          -38.4
5            O=C(COc1ccc(Cl)cc1)Nc1ccccc1CO  inhibition           -9.8

State the recorded inhibition for this entry: `CCOC(=O)N1CCC(Nc2nc3ccccc3n3cnnc23)CC1` -35.1

inhibition lookup needed for `CCc1nnc(NC(=O)c2ccc(S(=O)(=O)N(CC(C)C)CC(C)C)cc2)o1` , thanks. 12.8

Entry under review: CC1CCCCC1NC(=O)Cn1nnc(-c2ccc(Cl)cc2)n1 (configuration not stated) . Reported inhibition? -27.6

Bench note: what inhibition did `COC(=O)c1c(NC(=O)CSc2nnnn2C)sc(C)c1C` show? 30.9

###

# testMethodNotes: inhibitors of mutant huntingtin aggregation, primary screen, imaging, exon1htt(103Q)mCFP cells, high-content imaging (AID 483);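 also: compound exposure lasted 3 days before fixation; percent of the per-plate median nuclei count of sample wells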
# protocolConditions: exon1htt(103Q)mCFP cell line, aggregate imaging, at 2 µM; measured here: cell count, toxicity
observable: nuclei count (%)
Report the figure in % without appending any unit label.

These solved cases illustrate the format of a correct answer.
> print(dat)
                                   compound    observable  readoutnumber
1         Cc1ccn2cc(CCNC(=O)CC(C)(C)C)nc2c1  nuclei count           95.6
2  CC(=O)OCC1OC(c2ccccc2)C(OC(C)=O)C(OC(C)=O)C1OC(C)=O (stereo unspecified)  nuclei count           59.7
3               Nc1nc(-n2cnnc2)nn1-c1ccccc1  nuclei count             97
4  COc1ccc(C2C(C(=O)NCCN3CCOCC3)c3ccccc3C(=O)N2C2CCCCC2)cc1 (stereo unspecified)  nuclei count            111
5  O=C(CSc1nc(N2CCCCC2)nc(N2CCCCC2)n1)Nc1nccs1  nuclei count           96.9

Please find the next compound below.
So what's the measured nuclei count for this one? `CN(CC(=O)Nc1nccs1)S(=O)(=O)c1ccc(F)cc1` 110

###

# testMethodNotes: inhibitors of poly I:C-induced TLR3 signaling, primary screen, cell-based, poly I:C stimulus, luciferase, 10K MLSCN set (AID 602277)
# protocolConditions: HEK293-TLR3 RL24 IRF3 luciferase reporter, at 10 µM, stronger effect = higher value
observable: inhibition (%)
Quick reminder: number only, in %, skip the unit.

> print(dat)
                                   compound  observable  readoutnumber
1      CC(=O)O[C@H]1CSC[C@H]1NC(=O)c1ccccc1  inhibition           16.9
2       O=C(CCCNS(=O)(=O)c1ccccc1)NCc1ccco1  inhibition           10.4
3          C=CCn1c(-c2ccc(OC)cc2)nc2ccccc21  inhibition          -54.6
4  CC(C)OC(=O)CSc1nnc(-c2ccccn2)n1-c1ccccc1  inhibition           6.06
5  CC(C(N)=O)N1C(=O)C2C3C=CC(C3)C2C1=O (centres undefined)  inhibition           11.3

Fill in the blank: the reported inhibition of `COc1ccc2cc(C#N)c(SCC(=O)N3CCCC3)nc2c1` is ____. -5.53

What value of measured inhibition is listed for `Cn1c(SCC(=O)Nc2ccc3c(c2)OCO3)nnc1-c1cnccn1` ? 24.2

Returns the measured inhibition for the input compound. Input: `CCCN1CCN(CCCNC(=O)Cn2ncc3c4ccccc4n(C)c3c2=O)CC1` 34.8

Return reported inhibition; argument: `C=C(Cl)COc1ccc2c(C)cc(=O)oc2c1` -67.7

Can you look up the measured inhibition of `Cc1cn2c(-c3ccc(Cl)cc3)nnc2s1` for me? 12.3

Looking for the measured inhibition of `CCOC(=O)c1ccc(NC(=O)CCc2nc(-c3cccc(C)c3)no2)cc1` , can you help? -24

Request the reported inhibition associated with `CCOC(=O)C1CCN(C(=O)C2(NC(=O)Nc3ccccc3Cl)CCCCC2)CC1` 20.6

###

# testMethodNotes: DUSP6 inhibitors restoring Erk phosphorylation by chemical complementation, primary imaging in DUSP6-transfected HeLa (AID 609)
# protocolConditions: HeLa MKP-3 transfected, phospho-Erk imaging KS statistic; measured here: nuclear pErk red intensity z-score; at 10 µM; stronger effect = higher value; cells stimulated with TPA for 15 min
Please map values of z-score to classes as shown: zone 1: < -0.9; zone 2: ≥ -0.9 and < -0.06; zone 3: ≥ -0.06

Known results for molecules:
> print(dat)
                                   molecule   group
1  CC1N(O)C(c2ccc(Cl)cc2Cl)N(O)C1(C)C (stereo unspecified)  zone 3
2  COc1ccc2c(c1OC)C(=O)N1c3ccccc3C(=O)N(c3ccccc3F)C21 (stereo unspecified)  zone 2
3  COc1cccc(N2CCN(C(=O)c3ccc(=O)oc3)CC2C)c1 (stereo unspecified)  zone 3
4  CC(C)C(=O)N1CCN(c2nc(-c3ccccc3)c3c(c2C#N)CC(C)(C)OC3)CC1  zone 2
5  Cc1cc(=O)oc(C)c1C(=O)n1nc(C)c2c1C[C@@H]1[C@H]2C1(C)C  zone 1
6     Clc1ccc(-n2ncc3c(NCc4cccs4)ncnc32)cc1  zone 3
7  CCc1cc(=O)oc2cc(C)c(CN3CCCC(C)C3)c(O)c12 (stereo unspecified)  zone 2
8  Cn1c(OCc2cccnc2)nc2c1c(=O)n(Cc1ccccc1)c(=O)n2C  zone 1

Kindly review the next molecule as well.
Category of `COc1ccc(Nc2cc(C)nc(-n3nc(C)cc3C)n2)cc1` : zone 1

###

# testMethodNotes: inhibitors of E-selectin induction by TNFa, primary screen, imaging, HUVEC, immunofluorescence, MLSMR starter and 10KST1 sets (AID 487);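 as to nuclei count: 100% = median nuclei count of all wells on the same plate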
# protocolConditions: HUVEC TNFalpha-induced E-selectin immunofluorescence imaging, at 2 µM; measured here: cell number, toxicity
Some compounds, each annotated with its measured nuclei count.
Please give a number only; it is taken to be in %.

> print(dat)
                                   compound  readoutnumber
1  CN(C)CCN1C(=O)C(O)=C(C(=O)c2cc3ccccc3o2)C1c1ccc(N(C)C)cc1 (stereo unspecified)            109
2  Cc1ccc(NC2=NCC(=O)N2c2ccc3c(c2)OCCO3)c(C)c1           97.3
3          CCSc1nnc2c(n1)OC=Nc1ccc(Br)cc1-2           84.5
4               CCc1ccc(CN(C)CCc2ccccn2)cc1             94

Fill in: nuclei count of `COCc1nnc(NC(=O)c2ccc(S(=O)(=O)N(C)c3ccccc3)cc2)o1` is ___ 107

Field request: nuclei count | item: `O=C(CCNS(=O)(=O)c1cccs1)Nc1ccccc1F` 109

###

Catalogue of inhibition values
# testMethodNotes: inhibitors of poly I:C-induced TLR3 signaling, primary screen, cell-based, poly I:C stimulus, luciferase, 10K MLSCN set (AID 602277)
# protocolConditions: HEK293-TLR3 RL24 IRF3 luciferase reporter, at 10 µM, stronger effect = higher value
Dear colleague, please return just the value in %, with no unit written.

Here's what some known entries look like.
> print(dat)
                                   compound  observable  readoutnumber
1  CCc1ccc(N2CC(C(=O)OCC(=O)NC3CCS(=O)(=O)C3)CC2=O)cc1 (configuration not stated)  inhibition           7.99
2  O=C1c2ccccc2S(=O)(=O)N1CC(O)Cn1c2ccccc2c2ccccc21 (configuration not stated)  inhibition           30.2
3  CCOC(=O)N1CCN(c2c(N3CCc4ccccc4C3)c(=O)c2=O)CC1  inhibition           16.4

Form field: reported inhibition of O=C(c1ccc(S(=O)(=O)N2CCOCC2)cc1)N(c1ccc(F)cc1)C1C=CS(=O)(=O)C1 (configuration not stated) 13.3

Record request: inhibition value, item O=C1CCCC2=C1C(c1ccc(Br)cc1)c1c([nH]c(=S)[nH]c1=O)N2 (configuration not stated) 17.9

Quick check: inhibition of `Cc1ccc(CCC(=O)Nc2ccc(S(N)(=O)=O)cc2)o1` ? 2.2

Find the recorded inhibition belonging to c1ccc(CC2CCN(C(c3cccs3)c3nnnn3C3CCCC3)CC2)cc1 (configuration not stated) and report it. 20.3

Find the recorded inhibition belonging to `COc1cc2c(N3CCOCC3)cc(O)c(CC(=O)Nc3ccccc3)c2cc1OC` and report it. 7.05

What value of inhibition has been reported for the following compound? `Cn1c(=O)[nH]c(=O)c2c1nc(N1CCNCC1)n2CCOc1ccccc1` 1.53

Would you mind telling me what inhibition value was observed for `CCCCCc1c(C)nc(N2CCc3ccccc32)[nH]c1=O` ? -33.8
